Origin of the recorded values: ChEMBL document CHEMBL1125363

# subject.of.test: Sigma non-opioid intracellular receptor 1 (Mus musculus, UniProt O55242)
# Sequence (O55242 whole entry): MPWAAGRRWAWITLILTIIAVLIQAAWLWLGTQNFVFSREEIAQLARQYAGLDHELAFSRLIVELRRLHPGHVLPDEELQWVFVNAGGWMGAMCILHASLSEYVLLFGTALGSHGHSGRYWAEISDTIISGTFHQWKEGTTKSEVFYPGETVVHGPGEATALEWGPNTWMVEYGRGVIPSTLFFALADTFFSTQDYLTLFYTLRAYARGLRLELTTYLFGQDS
# assay.remarks: In vitro binding affinity for the mouse sigma opioid receptor
pKi: −log10 of the molar value.
readout.kind: pKi

- compound: "O=C(CC1CCCN(CC2CC2)C1)c1ccc(F)cc1 (centres undefined)"
  reading: 7.77
- compound: "C[S+]([O-])c1ccc(C(=O)CC2CCN(Cc3ccccc3)CC2)cc1.O (centres undefined)"
  reading: 7.28
- compound: "FC(F)(F)c1ccc(OCC2CCN(Cc3ccccc3)CC2)cc1"
  reading: 8.70
- compound: "Cl.O=[N+]([O-])c1ccc(OCC2CCN(Cc3ccccc3)CC2)cc1"
  reading: 8.30
- compound: "O=C(CC1CCN(Cc2ccc(C(F)(F)F)cc2)CC1)c1ccc(F)cc1"
  reading: 8.52
- compound: "CCCCCN1CCC(COCc2ccc(F)cc2)CC1.Cl"
  reading: 8.05
- compound: "O=C(Cc1ccc(F)cc1)CC1CCN(Cc2ccccc2)CC1.O=C(O)/C=C\\C(=O)O"
  reading: 8.52
- compound: "O.OCc1ccc(OCC2CCN(CC3CC3)CC2)cc1"
  reading: 7.46

(1) Fc1ccc(COCC2CCN(Cc3ccncc3)CC2)cc1.O=C(O)/C=C/C(=O)O
(2) N#Cc1ccc(OCC2CCN(CC3CC3)CC2)cc1
# input Of the two listed items, 1 and 2 , which carries the larger pKi figure? # reply format: chosen label
# output 1
(1: 8.70, 2: 8.00)

(I) Fc1ccc(CN2CCC(COc3ccc(F)cc3)CC2)cc1
(II) O=C(O)/C=C\C(=O)O.c1ccc(CCCOC2CCN(Cc3ccccc3)CC2)cc1
# input Of the two listed items, I and II , which carries the larger pKi figure? # reply format: chosen label
# output II
(II: 8.70, I: 8.10)

(I) O.OC(CC1CCN(Cc2ccccc2)CC1)c1ccco1 (centres undefined)
(II) Cl.Fc1ccc(OCCC2CCN(Cc3ccccc3)CC2)cc1.O
(III) Cl.Fc1ccc(OCC2CCN(CC3CC3)CC2)cc1F
# input // ranking: key=pKi, reverse=True Please, when replying, give the labels in the order that was requested.
# output III, II, I

(a) O=C(CC1CCCN(Cc2ccccc2)C1)c1ccc(F)cc1 (centres undefined)
(b) O.O=C(CC1CCN(Cc2ccccc2)CC1)c1ccc(CO)cc1
# input Of the two listed items, a and b , which carries the larger pKi figure? # reply format: chosen label
# output a
(a: 7.85, b: 7.51)

###

# subject.of.test: D(2) dopamine receptor (Mus musculus)
# assay.remarks: In vitro binding affinity towards dopamine receptor D2
readout.kind: IC50 (nM)

- molecule: "COC(=O)c1ccc(COCC2CCN(Cc3ccccc3)CC2)cc1.Cl.O"
  subject.of.test: "D(2) dopamine receptor (Mus musculus)"
  unit.descriptor: "nM"
  IC50: 970
- molecule: "O.O=C(CC1CCN(Cc2ccccc2)CC1)c1ccc(O)cc1"
  subject.of.test: "D(2) dopamine receptor (Mus musculus)"
  unit.descriptor: "nM"
  IC50: 1340
- molecule: "O.O=C(CC1CCN(CCc2c[nH]c3ccccc23)CC1)c1ccc(F)cc1"
  subject.of.test: "D(2) dopamine receptor (Mus musculus)"
  unit.descriptor: "nM"
  IC50: 7

(I) O.OC(Cc1ccc(F)cc1)C1CCN(CCCc2ccccc2)CC1 (stereo unspecified)
(II) Cl.c1ccc(OCC2CCN(CC3CC3)CC2)nc1
(III) Fc1ccc(OCC2CCN(CC3CC3)CC2)cc1
(IV) Cl.Fc1ccc(COCC2CCN(Cc3ccc(OCc4ccccc4)cc3)CC2)cc1
(V) Cl.Fc1ccc(COCC2CCN(Cc3cccc4ccccc34)CC2)cc1
# input // ranking: key=IC50, reverse=True Please, when replying, give the labels in the order that was requested.
# output II, I, IV, III, V

###

# subject.of.test: Serotonin 2 (5-HT2) receptor (Mus musculus, UniProt Q02152+P34968+P35363)
# assay.remarks: In vitro binding affinity for serotonin 5-hydroxytryptamine (5-HT) 2 receptors
# Format: protein assay
readout.kind: Ki (nM)

// below: answered compounds
- compound.structure.string: "Cl.Fc1ccc(OCC2CCN(CCc3ccc(Cl)cc3)CC2)cc1"
  subject.of.test: "Serotonin 2 (5-HT2) receptor (Mus musculus, UniProt Q02152+P34968+P35363)"
  unit.descriptor: "nM"
  Ki: 26
- compound.structure.string: "Cl.Fc1ccc(COCC2CCN(Cc3ccc(Cl)cc3)CC2)cc1"
  subject.of.test: "Serotonin 2 (5-HT2) receptor (Mus musculus, UniProt Q02152+P34968+P35363)"
  unit.descriptor: "nM"
  Ki: 281
- compound.structure.string: "O.O=C(CC1CCN(CCc2c[nH]c3ccccc23)CC1)c1ccc(F)cc1"
  subject.of.test: "Serotonin 2 (5-HT2) receptor (Mus musculus, UniProt Q02152+P34968+P35363)"
  unit.descriptor: "nM"
  Ki: 3.6
- compound.structure.string: "COc1ccc(COCC2CCN(Cc3ccccc3)CC2)cc1.O=C(O)/C=C\\C(=O)O"
  subject.of.test: "Serotonin 2 (5-HT2) receptor (Mus musculus, UniProt Q02152+P34968+P35363)"
  unit.descriptor: "nM"
  Ki: 287

(I) Cl.c1ccc(CCCCOCC2CCN(Cc3ccccc3)CC2)cc1
(II) FC(F)(F)c1ccc(OCC2CCN(Cc3ccccc3)CC2)cc1
(III) Cl.Fc1ccc(OCC2CCN(Cc3ccccc3)CC2)cc1.O
(IV) Cl.Fc1ccc(COCC2CCN(CC3CCCCC3)CC2)cc1
# input // ranking: key=Ki, reverse=True Please, when replying, give the labels in the order that was requested.
# output II, I, IV, III
(II: 350 nM, I: 224 nM, IV: 127 nM, III: 28 nM)

###

# subject.of.test: D(2) dopamine receptor (Mus musculus, UniProt P61168)
# Sequence (P61168 whole entry): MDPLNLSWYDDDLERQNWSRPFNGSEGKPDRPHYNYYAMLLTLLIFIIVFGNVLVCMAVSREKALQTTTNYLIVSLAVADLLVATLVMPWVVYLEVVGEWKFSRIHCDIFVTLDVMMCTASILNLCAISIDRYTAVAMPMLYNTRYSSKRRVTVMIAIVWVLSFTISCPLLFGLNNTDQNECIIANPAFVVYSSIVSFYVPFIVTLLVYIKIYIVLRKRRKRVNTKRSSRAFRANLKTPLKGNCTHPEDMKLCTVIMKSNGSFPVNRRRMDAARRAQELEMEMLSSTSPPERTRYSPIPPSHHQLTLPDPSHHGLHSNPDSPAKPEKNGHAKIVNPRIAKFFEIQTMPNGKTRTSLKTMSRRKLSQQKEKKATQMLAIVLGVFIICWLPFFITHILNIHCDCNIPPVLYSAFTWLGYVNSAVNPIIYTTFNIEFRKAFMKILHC
# assay.remarks: In vitro binding affinity towards dopamine receptor D2
readout.kind: IC50 (nM)

// below: answered molecules
- molecule: "COC(=O)c1ccc(CN2CCC(COCc3ccc(F)cc3)CC2)cc1.Cl"
  subject.of.test: "D(2) dopamine receptor (Mus musculus, UniProt P61168)"
  IC50 (nM): 1980
- molecule: "Br.O=C(CC1CCN(CC2CC2)CC1)c1ccc(-c2ccccc2)cc1"
  subject.of.test: "D(2) dopamine receptor (Mus musculus, UniProt P61168)"
  IC50 (nM): 1720
- molecule: "CSc1ccc(C(O)CC2CCN(Cc3ccccc3)CC2)cc1 (stereo not drawn)"
  subject.of.test: "D(2) dopamine receptor (Mus musculus, UniProt P61168)"
  IC50 (nM): 7630
- molecule: "CC(=O)c1ccc(OCC2CCN(CC3CC3)CC2)cc1"
  subject.of.test: "D(2) dopamine receptor (Mus musculus, UniProt P61168)"
  IC50 (nM): 539

(I) Cl.Fc1ccc(OCC2CCN(CCc3ccc(Cl)cc3)CC2)cc1
(II) Cl.OC(CC1CCN(Cc2ccccc2)CC1)c1ccc(F)cc1 (stereo not drawn)
# input Given I and given II , which shows the smaller recorded IC50? # reply format: chosen label
# output I

(P) Fc1ccc(OCC2CCN(Cc3ccncc3)CC2)cc1.O
(Q) CSc1ccc(C(=O)CC2CCN(Cc3ccccc3)CC2)cc1
# input Given P and given Q , which shows the smaller recorded IC50? # reply format: chosen label
# output Q

###

# subject.of.test: Sigma non-opioid intracellular receptor 1 (Mus musculus, UniProt O55242)
# assay.remarks: In vitro binding affinity for the mouse sigma opioid receptor
pKi: −log10 of the molar value.
readout.kind: pKi

// below: answered molecules
- compound.structure.string: "Cl.Fc1ccc(COCC2CCN(Cc3cccc4ccccc34)CC2)cc1"
  pKi: 7.66
- compound.structure.string: "Fc1ccc(OCC2CCN(Cc3ccc4ccccc4c3)CC2)cc1"
  pKi: 7.29
- compound.structure.string: "CS(=O)(=O)c1ccc(C(=O)CC2CCN(Cc3ccccc3)CC2)cc1"
  pKi: 7.74

(I) CS(=O)(=O)c1ccc(OCC2CCN(CC3CC3)CC2)cc1
(II) O.O=C(O)/C=C\C(=O)O.c1ccc(CN2CCC(COCc3ccc(-c4ccccc4)cc3)CC2)cc1
# input Of the two listed items, I and II , which carries the larger pKi figure? # reply format: chosen label
# output II
(II: 7.70, I: 7.28)

###

# Organism: Mus musculus
# assay.remarks: Oral potency tested by using anti-mescaline test
# Type: functional
readout.kind: ED50 (mg/kg)
Give the number; mg/kg is assumed, so skip it.

// below: answered molecules
- molecule: "Fc1ccc(CN2CCC(COc3ccc(F)cc3)CC2)cc1"
  unit.descriptor: "mg/kg"
  ED50: 5.9
- molecule: "Fc1ccc(OCC2CCN(CC3CC3)CC2)cc1"
  unit.descriptor: "mg/kg"
  ED50: 2.9
- molecule: "Cl.O.OC(Cc1ccc(F)cc1)C1CCN(Cc2ccccc2)CC1 (centres undefined)"
  unit.descriptor: "mg/kg"
  ED50: 5
- molecule: "O=C(CC1CCN(Cc2ccccc2)CC1)c1ccc(-c2ccccc2)cc1"
  unit.descriptor: "mg/kg"
  ED50: 30
- molecule: "O.c1ccc(-c2ccc(OCC3CCN(CC4CC4)CC3)cc2)cc1"
  unit.descriptor: "mg/kg"
  ED50: 7.5
- molecule: "Cl.Fc1ccc(COCC2CCN(Cc3cccc4ccccc34)CC2)cc1"
  unit.descriptor: "mg/kg"
  ED50: 12

# input # lookup: ED50 of OC(Cc1ccc(F)cc1)C1CCN(CCCCc2ccccc2)CC1 (centres undefined)
# output 18

# input Then O=C(CC1CCCN(Cc2ccccc2)C1)c1ccc(F)cc1 (centres undefined) ?
# output 1.1

# input Then O.O=C(Cc1ccc(F)cc1)C1CCN(Cc2ccccc2)CC1.O=C(O)/C=C\C(=O)O ?
# output 18

# input Then Cl.Fc1ccc(OCC2CCN(CC3CC3)CC2)cc1F ?
# output 4.5

# input Then Br.CN(C)c1ccc(C(=O)CC2CCN(CC3CC3)CC2)cc1.O ?
# output 30

# input Then N#Cc1ccc(C(=O)CC2CCN(CC3CC3)CC2)cc1.O=C(O)/C=C/C(=O)O ?
# output 0.8

# input Then Cl.O=[N+]([O-])c1ccc(OCC2CCN(Cc3ccccc3)CC2)cc1 ?
# output 14

# input Then Cl.Clc1ccc(OCC2CCN(CC3CC3)CC2)c(Cl)c1 ?
# output 2.9
